test system: Chenopodium album; assay: Herbicidal activity against Chenopodium album assessed as growth inhibition at 150 g ai/ha using post-emergence protocol under greenhouse conditions measured 15 days after compound treatment; type: functional; settings: 360 h, read-out: GI
Each item that follows carries a reported inhibition of growth at 150 g/ha.

Sample answers from the record:
{"compound": "Cc1nn(-c2cc(NS(C)(=O)=O)c(Cl)cc2Cl)c(=O)n1C(F)F", "outcome-measure": "inhibition of growth at 150 g/ha", "result": "100%"}
{"compound": "CCOc1cc(N2CC3=C(CCCC3)C2=O)c(Cl)cc1Cl", "outcome-measure": "inhibition of growth at 150 g/ha", "result": "50%"}
{"compound": "CCOC(=O)COc1cc(N2C(=O)C3CCCCC3C2O)c(F)cc1Cl (centres undefined)", "outcome-measure": "inhibition of growth at 150 g/ha", "result": "< 50%"}

-- ask For O=C1C2=C(CCCC2)C(O)N1c1cc(OCc2cccc(F)c2)c(Cl)cc1F (centres undefined) , what is its reported inhibition of growth at 150 g/ha?
-- reply 50%

-- ask For COc1cc(N2C(=O)C3CCCCC3C2=O)c(F)cc1Cl (centres undefined) , what is its reported inhibition of growth at 150 g/ha?
-- reply < 50%

-- ask For O=C1C2CCCCC2C(O)N1c1cc(OC2CCCC2)c(Cl)cc1F (centres undefined) , what is its reported inhibition of growth at 150 g/ha?
-- reply < 50%

-- ask For Nc1cc(N2CC3=C(CCCC3)C2=O)ccc1Cl , what is its reported inhibition of growth at 150 g/ha?
-- reply < 50%

-- ask For C=CCOc1cc(N2C(=O)C3CCCCC3C2O)c(F)cc1Cl (centres undefined) , what is its reported inhibition of growth at 150 g/ha?
-- reply < 50%

-- ask For C=CCOc1cc(N2C(=O)C3=C(CCCC3)C2OCC=C)c(F)cc1Cl (centres undefined) , what is its reported inhibition of growth at 150 g/ha?
-- reply > 80%
